# Lookup of reported abundance fitness keyed by entry
B1: Mineralocorticoid receptor, residues 600 to 675; numbered along this chain, P08235 (parent)
chain: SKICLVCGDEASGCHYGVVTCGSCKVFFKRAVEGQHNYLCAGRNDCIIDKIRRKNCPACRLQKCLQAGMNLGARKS

Variants of: B1
Assay: abundance fitness (aPCA) (normalised: wild type 0, dead -1); higher = more abundant; growth selection in yeast, the domain comes from the species named
Details: Homo sapiens
ASSAY_ENDPOINT: abundance fitness

| INPUT_SEQUENCE | RESULT_VALUE |
| --- | --- |
| SKICLVCGDEASGCHYGVVTCGSCKVFFKRAVEGQHNYLCAGRNDCIIDKIRRKNCPACRLCKCLQAGMNLGARKS | -0.002 |
| SKICLVCGDEASGCHYGVVTCGSCKVFFKRAVEGQHNYLCAGRNDCIIDKIRRKNCPACRCQKCLQAGMNLGARKS | -0.843 |
| SKICLVCGDEASGCHYGVVTCGSCKVFFKRAVEGQHNYLCAGRNDCIIDKIRRKNCPACRLQSCLQAGMNLGARKS | -0.104 |
| SKICLVCGDEASGCHYGVVTCGSCKVFFKRAVEAQHNYLCAGRNDCIIDKIRRKNCPACRLQKCLQAGMNLGARKS | -0.099 |
| SKIYLVCGDEASGCHYGVVTCGSCKVFFKRAVEGQHNYLCAGRNDCIIDKIRRKNCPACRLQKCLQAGMNLGARKS | -0.99 |
| SKICLVCGDEASGCHYGVVTCGSCNVFFKRAVEGQHNYLCAGRNDCIIDKIRRKNCPACRLQKCLQAGMNLGARKS | 0.084 |
| SKICLVCGDEASGCHYGVVTCGLCKVFFKRAVEGQHNYLCAGRNDCIIDKIRRKNCPACRLQKCLQAGMNLGARKS | -0.104 |
| SKICLVCGDEASGCHYGVVTCGSCKVFFKRAVEGQHNYLCAGRNDCIIDKIRRKNCPACRLQKCLQAGMNLGARCS | -0.038 |
| SKICLVCGDEASGCHYGVVTCGSCKVFFKRAVEGQHNYLCTGRNDCIIDKIRRKNCPACRLQKCLQAGMNLGARKS | -0.048 |
| SKICLVCGDEASGCHYGVVTCGSCKVFFKRAVEGQHNYLCAGRNDCPIDKIRRKNCPACRLQKCLQAGMNLGARKS | 0.013 |
| SKICLVCGDEASGCHYGVVTCGSCKVFFKRAVEGQHNYLCAGRNDCIIDKIRRKNCPACRLQKCLQAGMNLGAMKS | -0.015 |
| SKICLVCGDEASGCHYGVTTCGSCKVFFKRAVEGQHNYLCAGRNDCIIDKIRRKNCPACRLQKCLQAGMNLGARKS | -0.113 |
| SKICLVCGDEASGCHYGVVTCGSCKVFFKRAVEGQHNYLCAGRNDCIIDKIRRKNCPACRLQKCLQNGMNLGARKS | -0.084 |
| SKICLVCGDEASGCHYGVVMCGSCKVFFKRAVEGQHNYLCAGRNDCIIDKIRRKNCPACRLQKCLQAGMNLGARKS | -0.194 |
| SKICLVCGDEASGCHYGVVTCGSCKVFFKRAVEGQHNYLCAGRNDMIIDKIRRKNCPACRLQKCLQAGMNLGARKS | -0.81 |
| SKICLVCGDEASGCHYGVVTCGSCKVFFKRAVEGQHNYLCAGRNDCIIDKIRRKNCPACRLQKCLQAGMNLGARGS | -0.024 |
| MKICLVCGDEASGCHYGVVTCGSCKVFFKRAVEGQHNYLCAGRNDCIIDKIRRKNCPACRLQKCLQAGMNLGARKS | -0.06 |
| SKICLVCGDEASGCHYGVVTCGSCKVFFKRAVEGQHNYLCAGRNDCAIDKIRRKNCPACRLQKCLQAGMNLGARKS | -0.035 |
| SKICLVCGDEASGCHYGVVTCGSCKVFFKRAVEGQHNYLCALRNDCIIDKIRRKNCPACRLQKCLQAGMNLGARKS | -0.009 |
| SKICRVCGDEASGCHYGVVTCGSCKVFFKRAVEGQHNYLCAGRNDCIIDKIRRKNCPACRLQKCLQAGMNLGARKS | -0.091 |
| SKICLVCGDEASGCHYGVVTCGSCKVFFKRAVEGQHNYLCAGRNDCIIDKIRRKNCRACRLQKCLQAGMNLGARKS | -0.115 |
| SKICLVCGDEASGCHYGVVTCGSCKVFFKRAVEGQHNYLCAGRNDCIIDKILRKNCPACRLQKCLQAGMNLGARKS | -0.149 |
| SKICLVCGDEASGCHYGVVTCGSCKVFFKRAVEGQHNYDCAGRNDCIIDKIRRKNCPACRLQKCLQAGMNLGARKS | 0.048 |
| SKICLVCGDEASGCHYGVVTCGSCKVFFKRAVEGQHNYLCAGRNDCIIDKIRRKNCPACRLQKCLQAGMNLGARKN | -0.071 |
| SKICLVCGDEASGCHYGVVTCGSCKVFFKRAVEGQHNYLCAGRNDCIIDKIRRKNCPSCRLQKCLQAGMNLGARKS | 0.012 |
| SKICLVCGDEASGCHYGVVTCGSCKVFFKRAVEGQHNYLCAGRNDCIIDKIRRKNCPACRLQKCLQAGMNLKARKS | -0.048 |
| SKICLVCGDEASGCHYGVVTCGSCKVFFKRAVEGQHNYLCAGRNDCIIDKIRRKNCPACRLQKCLIAGMNLGARKS | -0.029 |
| SKICLVCGDEASGCHYGVVTCGFCKVFFKRAVEGQHNYLCAGRNDCIIDKIRRKNCPACRLQKCLQAGMNLGARKS | -0.168 |
| SKICLVCGDEASGCHYGVVTCGSCKVFFKRAVEGQHNYLCAGRNDCIIDKIRRKYCPACRLQKCLQAGMNLGARKS | -0.155 |
| SKICLVCGDEASGCHYGVVTCGSCKVFFKRAVERQHNYLCAGRNDCIIDKIRRKNCPACRLQKCLQAGMNLGARKS | 0.032 |
| SKICLVCGDEASGCHYGVVTCGSCKVFFKRAVEGQHNYLCAGRNDCIIDKIRRKNCPACRLQKCLQAGMQLGARKS | -0.019 |
| SKICLVCGDEASGPHYGVVTCGSCKVFFKRAVEGQHNYLCAGRNDCIIDKIRRKNCPACRLQKCLQAGMNLGARKS | -0.072 |
| SKICKVCGDEASGCHYGVVTCGSCKVFFKRAVEGQHNYLCAGRNDCIIDKIRRKNCPACRLQKCLQAGMNLGARKS | 0.057 |
| SKICLVCGDEASGLHYGVVTCGSCKVFFKRAVEGQHNYLCAGRNDCIIDKIRRKNCPACRLQKCLQAGMNLGARKS | -0.103 |
| SKICLVCGDEASGCHYGVVTCGSCKVFFKRAVEGQHNYLCAGRNDCIIDKIRRKNCPACRLQKCLQAFMNLGARKS | -0.77 |
| SKICLVCGDEASGCHYGVVTCGSCKVFFKRAVEGQHNYLCAGRNDCVIDKIRRKNCPACRLQKCLQAGMNLGARKS | -0.019 |
| SKIDLVCGDEASGCHYGVVTCGSCKVFFKRAVEGQHNYLCAGRNDCIIDKIRRKNCPACRLQKCLQAGMNLGARKS | -0.549 |
| SKICLVCGDEANGCHYGVVTCGSCKVFFKRAVEGQHNYLCAGRNDCIIDKIRRKNCPACRLQKCLQAGMNLGARKS | 0.205 |
| SKICLVCGDEASGCHYGVVTCGSCKHFFKRAVEGQHNYLCAGRNDCIIDKIRRKNCPACRLQKCLQAGMNLGARKS | -0.03 |
| SKICLVCGDEASGCHYGVVTCGPCKVFFKRAVEGQHNYLCAGRNDCIIDKIRRKNCPACRLQKCLQAGMNLGARKS | 0.026 |
| SKICLVCGDEASGCHYGVVTCDSCKVFFKRAVEGQHNYLCAGRNDCIIDKIRRKNCPACRLQKCLQAGMNLGARKS | 0.008 |
| SKICLVCGDEASGCHYGVVTCGSCKVFFKRAVEGQHNYLCAGRNDCIIDKIRRKNCPACRLQKCLQAGMNLGARDS | -0.057 |
| SKICLVCGDEASGCHYGVVTCGSCKVFFKRAVEGQHNYLTAGRNDCIIDKIRRKNCPACRLQKCLQAGMNLGARKS | -0.68 |
| SKICLVCGDEASGCHYGVVTCSSCKVFFKRAVEGQHNYLCAGRNDCIIDKIRRKNCPACRLQKCLQAGMNLGARKS | -0.058 |
| SKICLVCGDEASGCHYGVVTCGSCKVFFKRAVEGQHNYLCAGRNDCIIDKIRRKNCPACRLQKCLQAGMNLGARKR | -0.116 |
| SKICLVCGDEASGCHYGVVTCGSCKVFFKRAVEGQHNYLCAGRNDCIIDKIRRQNCPACRLQKCLQAGMNLGARKS | -0.071 |
